These data points were gathered from patent US5389645A.

Molecular target: δ opioid receptors (Rattus norvegicus, UniProt P33533)
Sequence (P33533 whole entry): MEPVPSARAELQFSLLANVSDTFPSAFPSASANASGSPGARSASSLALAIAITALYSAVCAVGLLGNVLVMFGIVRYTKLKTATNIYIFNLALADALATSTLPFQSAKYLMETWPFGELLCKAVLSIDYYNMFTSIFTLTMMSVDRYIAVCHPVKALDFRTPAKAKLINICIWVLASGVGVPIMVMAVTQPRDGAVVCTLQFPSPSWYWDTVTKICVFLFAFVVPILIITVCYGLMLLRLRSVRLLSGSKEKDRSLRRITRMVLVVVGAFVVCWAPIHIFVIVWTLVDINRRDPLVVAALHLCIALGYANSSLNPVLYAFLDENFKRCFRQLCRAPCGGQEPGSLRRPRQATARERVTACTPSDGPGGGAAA
pIC50: −log10 of the molar value. Structures can show the parent of a compound that is named as a salt.
// label = fulfilled if pIC50 is not less than 8, otherwise not fulfilled

stdin: Does the reported pIC50 for Cc1cc(O)cc(C)c1C[C@H](N)C(=O)NC(C)(C)CNC(=O)c1cnc2ccccc2c1 [Example 8, hydrochloride] fall at or above the 8 mark?
stdout: not fulfilled

stdin: Does the reported pIC50 for Cc1cc(O)cc(C)c1C[C@H](N)C(=O)NC(C)(C)CNC(=O)c1ccc2ccccc2n1 [Example 6, hydrochloride] fall at or above the 8 mark?
stdout: fulfilled

stdin: Does the reported pIC50 for Cc1cc(O)cc(C)c1C[C@H](N)C(=O)NCC(C)(C)NC(=O)NCc1ccccc1 [Example 11, hydrochloride] fall at or above the 8 mark?
stdout: not fulfilled

stdin: Does the reported pIC50 for Cc1cc(O)cc(C)c1C[C@H](N)C(=O)NC(C)(C)CNC(=O)CCc1ccccc1 [Example 13, hydrochloride] fall at or above the 8 mark?
stdout: fulfilled

stdin: Does the reported pIC50 for Cc1cc(O)cc(C)c1C[C@H](N)C(=O)NC(C)(C)CNC(=O)NCc1ccccc1 [Example 10, hydrochloride] fall at or above the 8 mark?
stdout: not fulfilled

stdin: Does the reported pIC50 for Cc1cc(O)cc(C)c1C[C@H](N)C(=O)NCC(C)(C)NC(=O)CCc1ccccc1 [Example 14, hydrochloride] fall at or above the 8 mark?
stdout: not fulfilled
